System: SB.mhdgc-1
test: area under the dose-response curve of % viability (trapezoidal, 11 doses) (% viability x log10 concentration); higher = less cytotoxic
cond: SB.mhdgc-1 (hereditary c.1380delA CDH1 gastric cancer)
Note to self: values exactly at 400 are Condition met. So area under the dose-response curve at or above 400 is Condition met, below is Condition not met.

Please review the entries below; each comes with its answer.
1) OC1=CC2=C(C(=C1)O)C(=O)\C(=C(/O2)C3=CC(=C(O)C=C3)O)O [Quercetine] (top concentration 46.0829 µM) ... Condition met
2) CC[C@H]1OC(=O)[C@H](C)[C@@H](O[C@H]2C[C@@](C)(OC)[C@@H](O)[C@H](C)O2)[C@H](C)[C@@H](O[C@@H]2O[C@H](C)C[C@H](N(C)C)[C@H]2O)[C@](C)(O)C[C@@H](C)/C(=N\OCOCCOC)[C@H](C)[C@@H](O)[C@]1(C)O [Roxithromycin] (top concentration 46.0829 µM) ... Condition not met

Next item in the queue.
*Q* In plain terms: is recorded area under the dose-response curve at least 400 for COC(=O)Nc1ccc(-c2nc(N3CCOCC3)c3cnn(C4CCN(C(=O)OC)CC4)c3n2)cc1 [WYE-354] (top concentration 46.0829 µM) ?
*A* Condition not met
